# Tested on: MCC-13
# Protocol Description: qHTS assay to identify novel small-molecules to repurpose for Merkel cell carcinoma treatment (AID 1296009); note: nearly all actives have a fitted effect of over 60% in size
# Measurement Conditions: MCC and control cell lines, CellTiter-Glo viability, 72 h; series mostly up to 46 µM
Inconclusive results are not listed. The source made the active and inactive calls. Calls come from the whole dose curve; as a rule, active = well fitted inhibition curve with a large enough effect; inconclusive = small, poorly fitted or top-dose-only effect; inactive = flat fitted curve, though single readings scatter.
Assign a class; possible classes are active, inactive

| Compound | System Name | Assigned Label |
| --- | --- | --- |
| O=C(CCCCCCC(=O)Nc1ccccc1)NO | MCC-13 | active |

[in] Tell me the recorded outcome of this test for O=c1c(-c2ccc(O)cc2)coc2cc(O[C@@H]3O[C@H](CO)[C@H](O)[C@H](O)[C@H]3O)ccc12 .
[out] inactive

[in] Tell me the recorded outcome of this test for CCOC1OC(=O)C[C@H]1NC(=O)[C@@H]1CCCN1C(=O)[C@@H](NC(=O)c1ccc(N)c(Cl)c1)C(C)(C)C (stereo partly drawn) .
[out] inactive

[in] Tell me the recorded outcome of this test for Cc1ccc(F)c(NC(=O)Nc2ccc(-c3cccc4[nH]nc(N)c34)cc2)c1 .
[out] inactive

[in] Tell me the recorded outcome of this test for CNC1CCC(N(Cc2cccc(-c3ccncc3)c2)C(=O)c2sc3c(F)ccc(F)c3c2Cl)CC1 (stereo not drawn) .
[out] inactive

[in] Tell me the recorded outcome of this test for O=C(CCc1ccc(O)cc1)c1c(O)cc(O)cc1O[C@@H]1O[C@H](CO)[C@H](O)[C@H](O)[C@H]1O .
[out] inactive

[in] Tell me the recorded outcome of this test for O=c1cc(-c2ccccc2)oc2cc(O)cc(O)c12 .
[out] inactive

[in] Tell me the recorded outcome of this test for COC(=O)N[C@H](C(=O)N1CCC[C@@H]1c1ncc(-c2ccc(-c3ccc(-c4cnc([C@@H]5CCCN5C(=O)[C@@H](NC(=O)OC)C(C)C)[nH]4)cc3)cc2)[nH]1)C(C)C .
[out] inactive

###

# Protocol Description: Quantitative High-Throughput drug screen in 47 multiple myeloma cell lines against the NCATS MIPE library collection: KMS27_JCRB cell viability assay (AID 1918970); note: nearly all actives have a fitted effect of over 30% in size
# Measurement Conditions: KMS27 myeloma cells, CellTiter-Glo ATP viability, 48 h; series mostly up to 45.8 µM
# Source text: PI: Beverly A. Mock Ph.D. Laboratory of Cancer Biology and Genetics, Center for Cancer Research, National Cancer Institute, National Institute of Health, Bethesda, Maryland […] 5; Detector; 425V; Luminescence; Viewlux PerkinElmer. […] 1. […] Briefly, the corresponding myeloma cell lines were screened in 1,536-well plates with 500 cells, 5-uL per well for inhibition of cell viability (assessed by measuring ATP levels with CellTiterGlo). […]
Results filed as inconclusive are left out. Activity calls are given as the source filed them. Calls follow the shape of the dose curve; as a rule, active = well fitted cell-killing curve with a large enough effect; inconclusive = small, poorly fitted or top-dose-only effect, or effect the other way; inactive = no such curve, though single readings can be large or run the other way.
Assign a class; possible classes are active, inactive

| Compound | Assigned Label |
| --- | --- |
| O=C(CCc1ccc(O)cc1)c1c(O)cc(O)cc1O[C@@H]1O[C@H](CO)[C@H](O)[C@H](O)[C@H]1O | inactive |
| C=C1C(=O)OC(CCCCCCCC)C1C(=O)O (centres undefined) | inactive |
| COc1cccc2c1CCCC2CCCN1CCN(C2CCCCC2)CC1 (centres undefined) | active |
| c1ccc2c(Cc3c[nH]c4ccccc34)c[nH]c2c1 | active |
| COc1cc(O)c2c(c1)C(=O)c1cc(C)cc(O)c1C2=O | inactive |
| O=c1c(-c2ccc(O)cc2)coc2cc(OC3O[C@H](CO)[C@H](O)[C@H](O)[C@H]3O)cc(O)c12 (some centres undefined) | inactive |

[in] Tell me the recorded outcome of this test for O=C(O)CCC1CCC(c2cc(F)ccc2F)(S(=O)(=O)c2ccc(Cl)cc2)CC1 (centres undefined) .
[out] active

[in] Tell me the recorded outcome of this test for COc1ccc(C2CC(c3ccccc3)=NN2c2ccc(S(N)(=O)=O)cc2)cc1 (centres undefined) .
[out] active

[in] Tell me the recorded outcome of this test for COc1ccc(-c2coc3cc(O)ccc3c2=O)cc1 .
[out] inactive

[in] Tell me the recorded outcome of this test for Cc1cnc(C(=O)O)c[n+]1[O-] .
[out] inactive

[in] Tell me the recorded outcome of this test for COc1cc2ncnc(Nc3ccc(F)c(Cl)c3)c2cc1OCCCN1CCOCC1 .
[out] active

[in] Tell me the recorded outcome of this test for C[C@]12CCC3c4ccc(O)cc4CCC3C1CCC2=O (some centres undefined) .
[out] inactive

[in] Tell me the recorded outcome of this test for O=C(O)C(O)Cc1ccc(O)c(O)c1 (centres undefined) .
[out] inactive

[in] Tell me the recorded outcome of this test for CC(C)(C(=O)NCC(F)(F)C(F)(F)F)C(=O)N[C@@H]1C(=O)Nc2ccccc2-c2ccccc21 .
[out] active

[in] Tell me the recorded outcome of this test for C=C1C(=O)OC2C=C(C)CCC=C(C)CCC12 (centres undefined) .
[out] active

[in] Tell me the recorded outcome of this test for Cc1[nH]c(C=C2C(=O)Nc3ccc(S(=O)(=O)Cc4c(Cl)cccc4Cl)cc32)c(C)c1C(=O)N1CCC[C@H]1CN1CCCC1 .
[out] active

[in] Tell me the recorded outcome of this test for CC=CC[C@@H](C)C(=O)[C@H]1C(=O)N[C@@H](C(C)C)C(=O)N(C)CC(=O)N(C)[C@@H](CC(C)C)C(=O)N[C@@H](C(C)C)C(=O)N(C)[C@@H](CC(C)C)C(=O)N[C@@H](C)C(=O)N[C@H](C)C(=O)N(C)[C@@H](CC(C)C)C(=O)N(C)[C@@H](CC(C)C)C(=O)N(C)[C@@H](C(C)C)C(=O)N1C .
[out] active

[in] Tell me the recorded outcome of this test for C[C@H]1[C@H](NC(=O)C(=NOC(C)(C)C(=O)O)c2csc(N)n2)C(=O)N1S(=O)(=O)O .
[out] inactive

[in] Tell me the recorded outcome of this test for Nc1ncnc2c1ncn2[C@@H]1O[C@H](CO)C[C@@H]1O .
[out] inactive
